target: Norepinephrine transporter (Rattus norvegicus, UniProt Q9JIA2)
Below, each entry is listed alongside its reported pKi.
Formally, pKi is defined as -log10 of the concentration c, with c in mol/L.

1) COC(=O)[C@@H]1C2CCC(C[C@@H]1c1ccc(Cl)c(Cl)c1)N2C (stereo partly drawn)    7.75
2) CN1C2CC[C@@H]1C[C@H](c1ccc(Cl)cc1)C2C(=O)N1CCCC1 (stereo partly drawn)    5.40
3) COC(=O)[C@H]1[C@@H](c2ccccc2)C[C@@H]2CC[C@H]1N2C    6.04
4) CC(C)OC(=O)[C@@H]1C2CC[C@H](C[C@@H]1c1ccc(Cl)cc1)N2C    6.11
5) COC(=O)[C@H]1[C@@H](c2ccc(Cl)c(C)c2)C[C@@H]2CC[C@H]1N2C    7.44

Query pKi on Norepinephrine transporter (Rattus norvegicus, UniProt Q9JIA2) for "CC(C)OC(=O)[C@@H]1C2CC[C@H](C[C@@H]1c1ccc(I)cc1)N2C"
6.55

Query pKi on Norepinephrine transporter (Rattus norvegicus, UniProt Q9JIA2) for "CN1[C@H]2CC[C@@H]1[C@@H](C(=O)N1CCCC1)[C@@H](c1ccc(I)cc1)C2"
6.00

Query pKi on Norepinephrine transporter (Rattus norvegicus, UniProt Q9JIA2) for "COC(=O)[C@H]1[C@@H](c2ccc(Cl)cc2)C[C@@H]2CC[C@H]1N2"
8.26

Query pKi on Norepinephrine transporter (Rattus norvegicus, UniProt Q9JIA2) for COC(=O)C1C2CC[C@H](C[C@@H]1c1ccc(C)cc1)N2C (stereo partly drawn)
7.22

Query pKi on Norepinephrine transporter (Rattus norvegicus, UniProt Q9JIA2) for "Cc1ccc([C@H]2C[C@@H]3CC[C@H]([C@H]2C(=O)Oc2ccccc2)N3C)cc1"
5.23

Query pKi on Norepinephrine transporter (Rattus norvegicus, UniProt Q9JIA2) for COC(=O)C1C2CC[C@H](C[C@@H]1c1ccc(N)cc1)N2C (stereo partly drawn)
6.82

Query pKi on Norepinephrine transporter (Rattus norvegicus, UniProt Q9JIA2) for "CN1[C@H]2CC[C@@H]1[C@@H](C(=O)Oc1ccccc1)[C@@H](c1ccc(Cl)cc1)C2"
5.53

* * *

For Sodium-dependent dopamine transporter (Rattus norvegicus, UniProt P23977), measured Ki is reported for the entries below.
Express your answer in nM, writing the number without its unit.

Example entries and their recorded answers appear below.
1) CC(C)OC(=O)[C@@H]1C2CC[C@H](C[C@@H]1c1ccc(I)cc1)N2C    0.4
2) CN1[C@H]2CC[C@@H]1[C@@H](C(=O)Oc1ccccc1)[C@@H](c1ccc(Cl)cc1)C2 [RTI-113]    1.98
3) Cc1ccc([C@H]2C[C@@H]3CC[C@H]([C@H]2C(=O)Oc2ccccc2)N3C)cc1 [RTI-120]    3.26

Query Ki on Sodium-dependent dopamine transporter (Rattus norvegicus, UniProt P23977) for CN1[C@H]2CC[C@@H]1[C@@H](C(=O)N1CCCC1)[C@@H](c1ccc(I)cc1)C2 [RTI-229]
Sequence (P23977 whole entry): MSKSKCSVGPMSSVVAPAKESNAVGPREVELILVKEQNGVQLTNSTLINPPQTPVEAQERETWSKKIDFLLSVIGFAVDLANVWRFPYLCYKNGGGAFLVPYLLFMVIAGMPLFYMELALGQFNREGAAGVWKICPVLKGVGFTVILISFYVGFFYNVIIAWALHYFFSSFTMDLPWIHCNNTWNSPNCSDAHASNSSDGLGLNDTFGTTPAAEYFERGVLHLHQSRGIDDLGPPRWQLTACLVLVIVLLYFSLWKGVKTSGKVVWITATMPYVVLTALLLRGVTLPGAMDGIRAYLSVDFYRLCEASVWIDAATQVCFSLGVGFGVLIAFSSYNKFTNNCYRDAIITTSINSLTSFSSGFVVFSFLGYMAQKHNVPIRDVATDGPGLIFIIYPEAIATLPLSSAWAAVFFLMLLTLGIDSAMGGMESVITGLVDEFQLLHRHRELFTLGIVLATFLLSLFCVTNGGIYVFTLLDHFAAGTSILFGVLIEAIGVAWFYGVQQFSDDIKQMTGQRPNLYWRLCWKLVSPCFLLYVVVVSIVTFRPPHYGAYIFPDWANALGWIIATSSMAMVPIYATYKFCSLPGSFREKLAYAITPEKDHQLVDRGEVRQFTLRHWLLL
0.37

Query Ki on Sodium-dependent dopamine transporter (Rattus norvegicus, UniProt P23977) for CN1C2CC[C@@H]1C[C@H](c1ccc(Cl)cc1)C2C(=O)N1CCCC1 (stereo not given in full) [RTI-147]
1.38

Query Ki on Sodium-dependent dopamine transporter (Rattus norvegicus, UniProt P23977) for "CC(C)OC(=O)[C@@H]1C2CC[C@H](C[C@@H]1c1ccc(Cl)cc1)N2C"
1.4

Query Ki on Sodium-dependent dopamine transporter (Rattus norvegicus, UniProt P23977) for "COC(=O)[C@H]1[C@@H](c2ccccc2)C[C@@H]2CC[C@H]1N2C"
23

Query Ki on Sodium-dependent dopamine transporter (Rattus norvegicus, UniProt P23977) for COC(=O)[C@H]1[C@@H](c2ccc(Cl)cc2)C[C@@H]2CC[C@H]1N2 [RTI-110]
0.62

* * *

For Sodium-dependent serotonin transporter (Rattus norvegicus, UniProt P31652), measured log10 Ki is reported for the entries below.
Please keep in mind that the values are log10 of Ki expressed in nM.

1) CN1[C@H]2CC[C@@H]1[C@@H](C(=O)Oc1ccccc1)[C@@H](c1ccc(Cl)cc1)C2    3.37
2) COC(=O)C1C2CC[C@H](C[C@@H]1c1ccc(N)cc1)N2C (stereo partly drawn)    3.71
3) COC(=O)[C@@H]1C2CCC(C[C@@H]1c1ccc(Cl)c(Cl)c1)N2C (stereo partly drawn)    0.49
4) CC(C)OC(=O)[C@@H]1C2CC[C@H](C[C@@H]1c1ccc(Cl)cc1)N2C    3.15
5) COC(=O)[C@H]1[C@@H](c2ccc(Br)cc2)C[C@@H]2CC[C@H]1N2C    1.03
6) CN1[C@H]2CC[C@@H]1[C@@H](C(=O)N1CCCC1)[C@@H](c1ccc(I)cc1)C2    3.24

Query log10 Ki on Sodium-dependent serotonin transporter (Rattus norvegicus, UniProt P31652) for "COC(=O)[C@H]1[C@@H](c2ccc(Cl)cc2)C[C@@H]2CC[C@H]1N2C"
Sequence (P31652 whole entry): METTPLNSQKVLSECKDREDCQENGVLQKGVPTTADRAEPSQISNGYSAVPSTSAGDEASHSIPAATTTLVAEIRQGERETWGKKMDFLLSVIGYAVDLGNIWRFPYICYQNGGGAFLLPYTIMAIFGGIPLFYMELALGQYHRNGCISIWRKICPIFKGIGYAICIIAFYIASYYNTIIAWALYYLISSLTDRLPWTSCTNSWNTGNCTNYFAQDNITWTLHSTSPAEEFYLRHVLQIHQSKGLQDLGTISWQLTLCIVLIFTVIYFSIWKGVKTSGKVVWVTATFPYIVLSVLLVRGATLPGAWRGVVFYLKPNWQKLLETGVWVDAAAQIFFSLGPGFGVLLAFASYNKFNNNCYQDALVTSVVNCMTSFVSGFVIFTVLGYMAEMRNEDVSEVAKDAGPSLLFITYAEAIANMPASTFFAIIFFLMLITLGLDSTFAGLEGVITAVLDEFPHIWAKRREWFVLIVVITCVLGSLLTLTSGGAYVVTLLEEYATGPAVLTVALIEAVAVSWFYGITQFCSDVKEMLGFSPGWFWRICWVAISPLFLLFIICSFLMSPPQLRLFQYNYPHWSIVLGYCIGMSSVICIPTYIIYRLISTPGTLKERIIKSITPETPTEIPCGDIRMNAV
1.65

Query log10 Ki on Sodium-dependent serotonin transporter (Rattus norvegicus, UniProt P31652) for "COC(=O)[C@H]1[C@@H](c2ccc(Cl)c(C)c2)C[C@@H]2CC[C@H]1N2C"
1.02

Query log10 Ki on Sodium-dependent serotonin transporter (Rattus norvegicus, UniProt P31652) for "CC(C)OC(=O)[C@@H]1C2CC[C@H](C[C@@H]1c1ccc(I)cc1)N2C"
1.82

Query log10 Ki on Sodium-dependent serotonin transporter (Rattus norvegicus, UniProt P31652) for "COC(=O)[C@H]1[C@@H](c2ccc(Cl)cc2)C[C@@H]2CC[C@H]1N2"
0.61

* * *

target: Sodium-dependent dopamine transporter (Rattus norvegicus)
test-readout: pKi
Formally, pKi is defined as -log10 of the concentration c, with c in mol/L.

Example entries and their recorded answers appear below.
1) COC(=O)[C@H]1[C@@H](c2ccc(Cl)c(C)c2)C[C@@H]2CC[C@H]1N2C    9.10
2) CN1[C@H]2CC[C@@H]1[C@@H](C(=O)O)[C@@H](c1ccc(Cl)cc1)C2 [RIT-70]    5.68
3) COC(=O)[C@H]1[C@@H](c2ccc(Cl)cc2)C[C@@H]2CC[C@H]1N2C [RTI-31]    8.95
4) COC(=O)C1C2CC[C@H](C[C@@H]1c1ccc(N)cc1)N2C (some centres not stated)    8.01
5) COC(=O)[C@H]1[C@@H](c2ccc(Br)cc2)C[C@@H]2CC[C@H]1N2C [RTI-51]    8.77

Query pKi on Sodium-dependent dopamine transporter (Rattus norvegicus) for COC(=O)C1C2CC[C@H](C[C@@H]1c1ccc(C)cc1)N2C (some centres not stated) [RTI-32]
8.77

Query pKi on Sodium-dependent dopamine transporter (Rattus norvegicus) for COC(=O)[C@@H]1C2CCC(C[C@@H]1c1ccc(Cl)c(Cl)c1)N2C (some centres not stated)
9.10

* * *

For Sodium-dependent serotonin transporter (Rattus norvegicus), measured Ki is reported for the entries below.

1. CN1C2CC[C@@H]1C[C@H](c1ccc(Cl)cc1)C2C(=O)N1CCCC1 (stereo partly drawn)    > 10 µM
2. Cc1ccc([C@H]2C[C@@H]3CC[C@H]([C@H]2C(=O)Oc2ccccc2)N3C)cc1    > 10 µM

Query Ki on Sodium-dependent serotonin transporter (Rattus norvegicus) for "CN1[C@H]2CC[C@@H]1[C@@H](C(=O)O)[C@@H](c1ccc(Cl)cc1)C2"
> 10 µM

# credit: BindingDB's records for PubMed 10336510
